In this section we review reported slope values for a set of molecules.
Target: Alpha-2C adrenergic receptor (Homo sapiens) (UniProt P18825)
Sequence (P18825 whole entry, looked up): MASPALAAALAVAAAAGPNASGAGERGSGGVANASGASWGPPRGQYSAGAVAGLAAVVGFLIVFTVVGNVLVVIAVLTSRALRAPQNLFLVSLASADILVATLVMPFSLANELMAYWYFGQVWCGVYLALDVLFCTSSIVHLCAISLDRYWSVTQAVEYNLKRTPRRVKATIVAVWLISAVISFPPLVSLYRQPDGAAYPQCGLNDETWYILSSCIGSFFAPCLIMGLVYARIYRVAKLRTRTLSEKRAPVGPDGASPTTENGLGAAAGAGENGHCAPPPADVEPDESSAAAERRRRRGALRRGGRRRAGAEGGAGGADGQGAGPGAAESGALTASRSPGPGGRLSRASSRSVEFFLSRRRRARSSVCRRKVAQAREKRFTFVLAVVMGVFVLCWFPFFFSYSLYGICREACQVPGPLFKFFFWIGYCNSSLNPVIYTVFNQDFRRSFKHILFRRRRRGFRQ
Experiment: compounds altering alpha2C-coupled GIRK flux – cell-based, HEK293 alpha2C/GIRK1/2, thallium flux, primary screen (AID 624);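 note: slope of fluorescence ratio to pre-addition baseline per second over 15 to 24 s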
Details: thallium flux BTC fluorescence, at 10 µM, actives lie on both sides
Active and inactive are the calls of the source.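 Rule for the calls: active = fluorescence slope after compound addition differing from the mean of all screened samples at 99.7% confidence, in either direction; inactive = the rest.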

Solved cases below.
CCOC(=O)c1nnc2ccnn2c1N : 0.00514 (inactive)
CC(C)c1nnc(NC(=O)Cc2cccs2)s1 : 0.00736 (inactive)
Cc1cccc(-n2ncc3c(N)ncnc32)c1 : 0.0039 (inactive)

Quick note, slope for CCC(C)NC(=O)CS(=O)(=O)Cc1nc(-c2cccc(OC)c2)oc1C (configuration not stated) landed at 0.00702 (inactive)

Quick note, slope for CCN(C(=O)c1cccs1)c1nnc(-c2ccncc2)s1 landed at 0.00498 (inactive)

Quick note, slope for O=C(NCc1cccs1)C1CC(c2ccccc2O)=NO1 (configuration not stated) landed at 0.00342 (inactive)

Quick note, slope for O=C(NCc1cccnc1)c1ccc(Cl)c(Cl)c1 landed at 0.00439 (inactive)

* * *

In this section we review reported fluorescence slope values for a set of compounds.
Biological target: Voltage-gated potassium channel subunit beta-2 (Rattus norvegicus)
Assay: inhibitors of rat Kvbeta2 reductase activity – biochemical, NADPH fluorescence, primary screen (AID 622);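 note: slope of raw intensity against log time taken from 70 to 1610 s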
Settings: recombinant KvBeta, 4-cyanobenzaldehyde reduction, at 10 µM, hits give high values
Lab note: record just the number, no unit beside it.

COc1ccc(S(=O)(=O)Cc2ccc(C(=O)N3CCOCC3)o2)cc1 : -0.615
OCCn1c(CSc2nnc(-c3ccco3)n2-c2ccccc2)nc2ccc(Cl)cc21 : -0.574
C=CCNC(=O)C1CC(=O)N(c2ccc(OCC(=O)Nc3ccc(OC)cc3)cc2)C1 (configuration not stated) : -0.339

Quick note, fluorescence slope for Cc1cc(C(=O)O)ccc1-n1c(C)ccc1C landed at -0.554

Quick note, fluorescence slope for CC1Cc2ccccc2N1C(=O)c1cnsn1 (configuration not stated) landed at -0.489

Quick note, fluorescence slope for CCOc1ccc(NCCC(=O)c2ccc3c(c2)OCO3)cc1 landed at -0.326

* * *

Target: Voltage-gated potassium channel subunit beta-2 (Rattus norvegicus) (UniProt P62483)
Sequence (P62483 whole entry, looked up): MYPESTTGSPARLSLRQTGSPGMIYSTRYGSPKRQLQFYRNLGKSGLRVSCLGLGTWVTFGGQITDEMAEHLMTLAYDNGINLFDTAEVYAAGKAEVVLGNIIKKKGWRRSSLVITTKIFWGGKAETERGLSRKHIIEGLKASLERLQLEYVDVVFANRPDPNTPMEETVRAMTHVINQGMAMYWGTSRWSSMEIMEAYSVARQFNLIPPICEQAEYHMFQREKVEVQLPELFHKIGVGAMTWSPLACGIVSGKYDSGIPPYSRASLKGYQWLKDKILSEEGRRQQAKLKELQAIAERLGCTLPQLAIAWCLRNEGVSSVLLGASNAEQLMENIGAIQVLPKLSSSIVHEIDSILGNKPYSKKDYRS
Assay: inhibitors of rat Kvbeta2 reductase activity – biochemical, NADPH fluorescence, primary screen (AID 622);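 note: slope of raw intensity against log time taken from 70 to 1610 s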
Conditions: recombinant KvBeta, 4-cyanobenzaldehyde reduction, at 10 µM
Activity calls are given as the source filed them.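 How the source made its calls: active means fluorescence slope higher than the sample average by over 3 SD (cut at about -0.22 in these data, passing the limit was not always enough); inactive means the rest.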
Just give me one of these, please: active, inactive

COc1cccc(N2C(=O)N(c3ccccc3Cl)C3CS(=O)(=O)CC32)c1 (stereo not given) : inactive
Cc1c(C(=O)O)sc2nc3n(c(=O)c12)CCC(C)CC3 (stereo not given) : inactive
O=c1c2ccccc2nc(SCc2cn3ccsc3n2)n1-c1ccc(F)cc1 : inactive
COC(=O)c1[nH]c2ccc(C)cc2c1NC(=O)CN1CCN(C(=O)c2ccccc2)CC1 : inactive
Cc1c(NS(=O)(=O)c2ccc3c(c2)n(C)c(=O)n3C)c(=O)n(-c2ccccc2)n1C : inactive
c1ccc(Cn2nnnc2CN2CCCC2)cc1 : inactive
NS(=O)(=O)c1ccc(NC(=O)N[C@@H](Cc2ccccc2)C(=O)O)cc1 : inactive
O=C(Nc1cc(C(F)(F)F)ccc1N1CCCC1)c1ccc2c(c1)OCO2 : inactive
CC(Sc1nnnn1-c1ccccc1)C(=O)Nc1ccc(Cl)cn1 (stereo not given) : inactive
COc1ccc(NC(=O)CSc2nnc(-c3ccncc3)n2CC2CCCO2)c(OC)c1 (stereo not given) : inactive

(Q) // return assay outcome for c1ccc(-c2cc(CSc3nc4ccccc4[nH]3)on2)cc1
(A) inactive

(Q) // return assay outcome for COc1cc(-c2nc(S(=O)(=O)c3ccc(C)cc3)c(N(C)C)o2)cc(OC)c1OC
(A) inactive

(Q) // return assay outcome for CC(C)c1nnc(NC(=O)Cc2cccs2)s1
(A) inactive

(Q) // return assay outcome for c1ccc(-n2nnnc2OCCOc2nnnn2-c2ccccc2)cc1
(A) inactive

(Q) // return assay outcome for O=C(CN(CC1CCCO1)S(=O)(=O)c1ccc(S(=O)(=O)NC2CC2)cc1)Nc1ccccc1 (stereo not given)
(A) inactive

(Q) // return assay outcome for Cn1c(=O)c2c(nc(SCCCO)n2Cc2ccccc2Cl)n(C)c1=O
(A) inactive

(Q) // return assay outcome for CS(=O)(=O)Nc1ccc(C(=O)NCCc2ccccc2)cc1
(A) inactive

(Q) // return assay outcome for O=C(NCc1nnc(SCC(=O)N2CCCCCC2)o1)c1ccco1
(A) inactive
